Items are presented alongside their recorded composite z-score.
# TARGET ENTITY: Calmodulin-1 (Homo sapiens) (UniProt P0DP23)
# TEST SUMMARY: CALM1 binders on microarrays, EGTA buffer, profiling panel, biochemical, small-molecule microarray, Cy5-labelled CALM1 (AID 1111);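 note: labelled calmodulin applied in Tris saline Tween buffer holding calcium plus EGTA and DTT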
# TEST CONTEXT: Cy5-CALM1 binding fluorescence, higher = more signal
RESULT TYPE: composite z-score

INSERT INTO assay_data (molecule, target_entity, quantitative_result) VALUES
  ('C=CCC(OC(C)=O)[C@@H]1[C@@H](N(Cc2cccc3ccccc23)C(=O)c2ccc(-c3ccccc3)cc2)c2cc(OCCCO)ccc2N1C(=O)Cc1ccc(OC)cc1 (some centres not stated)', 'Calmodulin-1 (Homo sapiens) (UniProt P0DP23)', 0.617),
  ('CN1C(=O)C2C=CC(C(O)C3CCCCC3)N(Nc3ccc([N+](=O)[O-])cc3[N+](=O)[O-])C2C1=O (configuration not stated)', 'Calmodulin-1 (Homo sapiens) (UniProt P0DP23)', 1.42),
  ('COCCn1c(C(=O)N2CCCC2)cc2c1C[C@H]1CN(C(=O)c3ccccc3)[C@@](Cc3ccc(F)cc3)(C(=O)OC)[C@@H]21', 'Calmodulin-1 (Homo sapiens) (UniProt P0DP23)', 2.41),
  ('CCCCCN1CC=CC23O[C@@H]4/C=C\CCCOC(=O)C4[C@H]2C(=O)N(CCCO)[C@@H]3C1=O (some centres not stated)', 'Calmodulin-1 (Homo sapiens) (UniProt P0DP23)', -0.113),
  ('COC(=O)[C@@]1(Cc2ccccc2)[C@H]2c3cc(C(=O)N4CCCC4)n(Cc4cccc5ccccc45)c3C[C@H]2CN1C(=O)c1ccccc1', 'Calmodulin-1 (Homo sapiens) (UniProt P0DP23)', 1.51),
  ('CCCN1C(=O)[C@]2(CCS(=O)(=O)c3ccccc3)N=C(c3ccc(OCCCO)cc3)O[C@@H]2c2ccccc21', 'Calmodulin-1 (Homo sapiens) (UniProt P0DP23)', 3.15),
  ('CC(CO)N1C(=O)[C@@H]2C3C(=O)OCCC/C=C\[C@H]3OC23C=CCN(c2ccc4ccccc4c2)C(=O)[C@@H]13 (some centres not stated)', 'Calmodulin-1 (Homo sapiens) (UniProt P0DP23)', 0.0827);

---

# TEST SUMMARY: osmotic lysis modulators in infected erythrocytes, primary screen, PSAC antagonist project, cell-based, P. falciparum Indochina, OD700, 3 h (AID 1156)
# TEST CONTEXT: higher = more signal, called active from +8 up or from −8 down
RESULT TYPE: z-score

INSERT INTO assay_data (molecule, quantitative_result) VALUES
  ('COc1ccc([Si](C)(C)[C@H]2[C@H](CCO)O[C@@]3(C(=O)N(Cc4ccc(N5C(=O)COc6ccccc65)cc4)c4ccccc43)[C@@H]2C)cc1', -0.645),
  ('CC(C)(C)OC(=O)CC[C@]12N=C(c3ccc(OCCCO)cc3)O[C@H]1c1ccccc1N(CCS(=O)(=O)c1ccccc1)C2=O', 4.08),
  ('C=CC[C@]1(C(=O)NCCCOC)N=C(c2ccc(OCCCO)cc2)O[C@H]1c1ccccc1N=[N+]=[N-]', 3.35),
  ('COc1ccc(NN2C(C(O)c3ccc([N+](=O)[O-])cc3)C=CC3C(=O)N(C4CCCCC4)C(=O)C32)cc1 (configuration not stated)', -0.187),
  ('Cc1ccc(C(C)CC(O)C2C=CC3C(=O)N(C)C(=O)C3N2NC(=O)OC(C)(C)C)o1 (configuration not stated)', -0.168),
  ('Cc1ccc(S[C@]2(C(=O)NC(C)C)CC(=O)N(Cc3ccccc3Cl)[C@@H]2c2ccc(CO)cc2I)cc1', 0.681),
  ('O=C1c2ccccc2[C@@]2(Cc3ccccc3N(CCN3CCOCC3)C2=O)[C@H](c2ccc(CO)cc2)N1Cc1ccccc1', -0.378);
